- System: HCC-15
- experiment: relative viability (nuclei count vs DMSO), 5 days (fraction); higher = more cells survive
- condition_summary: first compound 0.253 µM
Could you please mark y for values of relative viability below 0.6 and n for values at or above it?

Study these solved cases before continuing.
molecule: Oc1nc(-c2ccc(C(F)(F)F)cc2)nc2c1CSCC2 [XAV939] + Cc1nc(Nc2ncc(C(=O)Nc3c(C)cccc3Cl)s2)cc(N2CCN(CCO)CC2)n1 [Dasatinib] (partner 0.075 µM)
class_label: y

molecule: C=C1C(=O)O[C@@H](CCCCCCCC)[C@@H]1C(=O)O [C-75] + C[C@@H](Oc1cc(-c2cnn(C3CCNCC3)c2)cnc1N)c1c(Cl)ccc(F)c1Cl [Crizotinib] (partner 1 µM)
class_label: n

molecule: C=C1C(=O)O[C@@H](CCCCCCCC)[C@@H]1C(=O)O [C-75] + CS(=O)(=O)N1CCN(Cc2cc3nc(-c4cccc5[nH]ncc45)nc(N4CCOCC4)c3s2)CC1 [Pictilisib] (partner 1 µM)
class_label: n

molecule: C=C1C(=O)O[C@@H](CCCCCCCC)[C@@H]1C(=O)O [C-75] + N=C(N)NC(=N)NCCc1ccccc1 [Phenformin] (partner 250 µM)
class_label: y

Please examine the following record next.
## Task Report whether reported relative viability is lower than 0.6 (strictly) for C=C1C(=O)O[C@@H](CCCCCCCC)[C@@H]1C(=O)O [C-75] + COc1cccc2cc(-c3nc([C@H]4CC[C@H](C(=O)O)CC4)n4ncnc(N)c34)[nH]c12 [OSI-027] (partner 0.5 µM)
## Result n

###

- Tested on: SW 900
- experiment: relative viability (nuclei count vs DMSO), 5 days (fraction); higher = more cells survive
- condition_summary: first compound 2.53 µM
In plain terms, low relative viability, meaning strictly below 0.5, gives criterion met, and everything else gives criterion not met.

Solved entries (count: 3):
compound: Oc1nc(-c2ccc(C(F)(F)F)cc2)nc2c1CSCC2 [XAV939] + N=C(N)NC(=N)NCCc1ccccc1 [Phenformin] (partner 250 µM)
class_label: criterion met

compound: C=C1C(=O)O[C@@H](CCCCCCCC)[C@@H]1C(=O)O [C-75] + Cc1cc(Nc2cc(N3CCN(C)CC3)nc(Sc3ccc(NC(=O)C4CC4)cc3)n2)n[nH]1 [Tozasertib] (partner 0.1 µM)
class_label: criterion not met

compound: C=C1C(=O)O[C@@H](CCCCCCCC)[C@@H]1C(=O)O [C-75] + N=C(N)NC(=N)NCCc1ccccc1 [Phenformin] (partner 250 µM)
class_label: criterion not met

Shift focus to the following entry.
## Task Item C=C1C(=O)O[C@@H](CCCCCCCC)[C@@H]1C(=O)O [C-75] + NC(=O)Nc1cc(-c2cccc(F)c2)sc1C(=O)N[C@H]1CCCNC1 [AZD7762] (partner 0.2 µM) : relative viability beneath 0.5, strictly?
## Result criterion not met

###

- System: NCI-H1993
- experiment: relative viability (nuclei count vs DMSO), 5 days (fraction); higher = more cells survive
- condition_summary: first compound 0.3162 µM
measured_attribute: relative viability
// print number alone

Some solved cases for reference:
molecule: NC(=O)Nc1cc(-c2cccc(F)c2)sc1C(=O)N[C@H]1CCCNC1 [AZD7762] + CC(=O)c1c(C)c2cnc(Nc3ccc(N4CCNCC4)cn3)nc2n(C2CCCC2)c1=O [Palbociclib] (partner 0.5 µM)
measured_attribute: relative viability
obs_value: 0.589
--
molecule: NC(=O)Nc1cc(-c2cccc(F)c2)sc1C(=O)N[C@H]1CCCNC1 [AZD7762] + Nc1ncn([C@H]2C[C@H](O)[C@@H](CO)O2)c(=O)n1 [Decitabine] (partner 2 µM)
measured_attribute: relative viability
obs_value: 0.597

From here, focus on the item given below.
## Task If you can, please state the reported relative viability value of NC(=O)Nc1cc(-c2cccc(F)c2)sc1C(=O)N[C@H]1CCCNC1 [AZD7762] + Nc1nc2[nH]cc(CCc3ccc(C(=O)N[C@@H](CCC(=O)O)C(=O)O)cc3)c2c(=O)[nH]1 [Pemetrexed] (partner 0.2 µM) .
## Result 0.586
